Values from the supplement of paper PMC12494721

tested on: Escherichia coli IAI1; assay: fold change of Cadaverine concentration vs plate DMSO controls (fold change (ratio)); higher = more amine produced, active = hit call of the paper (significant change in both replicates, either direction); settings: incubation time: 27 h, anaerobic, 37 °C
Structures can show the parent of a compound that is named as a salt.
TEST READOUT: fold change of Cadaverine concentration
Give bare numbers.

See these solved cases before continuing.
COMPOUND	ASSAY TARGET	fold change of Cadaverine concentration
CCC[C@H](N[C@@H](C)C(=O)N1[C@H](C(=O)O)C[C@@H]2CCCC[C@@H]21)C(=O)OCC [Perindopril] (20 µM)	Escherichia coli IAI1	0.993
Cc1cc(-c2ccccc2)nnc1NCCN1CCOCC1 [Minaprine dihydrochloride] (20 µM)	Escherichia coli IAI1	1.01
NS(=O)(=O)c1cc2c(cc1C(F)(F)F)NC(Cc1ccccc1)NS2(=O)=O (stereo not given) [Bendroflumethiazide] (20 µM)	Escherichia coli IAI1	0.959
CC(=O)OCC(=O)[C@@]1(OC(C)=O)[C@@H](C)C[C@H]2[C@@H]3C[C@H](F)C4=CC(=O)C=C[C@]4(C)[C@@]3(F)[C@@H](O)C[C@@]21C [Diflorasone Diacetate] (20 µM)	Escherichia coli IAI1	1.02
CC(C)(c1cc(Br)c(O)c(Br)c1)c1cc(Br)c(O)c(Br)c1 (20 µM)	Escherichia coli IAI1	0.996
CCN[C@H]1CN(CCCOC)S(=O)(=O)c2sc(S(N)(=O)=O)cc21 [Brinzolamide] (20 µM)	Escherichia coli IAI1	1.01

Batch request: fold change of Cadaverine concentration for each of the following compounds.
1. Cc1cc(C2CCCCC2)n(O)c(=O)c1 [Ciclopirox ethanolamine] (20 µM)
2. C[C@H](N[C@@H](CCc1ccccc1)C(=O)O)C(=O)N1CCC[C@H]1C(=O)O [Enalaprilat dihydrate] (20 µM)
3. CN1CCc2c(c3ccccc3n2Cc2ccccc2)C1 [Mebhydroline 1,5-naphtalenedisulfonate] (20 µM)

Reply:
[1, 1.08, 0.982]

Items follow; give fold change of Cadaverine concentration for each.
1. COc1ccccc1N1CCN(CCCCNC(=O)c2ccc3ccccc3c2)CC1 (20 µM)
2. CC[C@H](C)C(=O)O[C@H]1C[C@H](O)C=C2C=C[C@H](C)[C@H](CC[C@@H](O)C[C@@H](O)CC(=O)O)[C@H]21 [Pravastatin] (20 µM)

Reply:
[0.795, 0.904]

Go through the list and state fold change of Cadaverine concentration for each entry.
1. CC(C(=O)O)c1ccc2c(c1)CC(=O)c1ccccc1S2 (stereo not given) [Zaltoprofen] (20 µM)
2. CC(=O)OC[C@H]1O[C@@H]([S-])[C@H](OC(C)=O)[C@@H](OC(C)=O)[C@@H]1OC(C)=O.CCP(CC)CC.[Au+] [Auranofin] (20 µM)
3. CC(Cc1cccc(C(F)(F)F)c1)NCCOC(=O)c1ccccc1 (stereo not given) [Benfluorex] (20 µM)

Reply:
1: 0.931; 2: 0.996; 3: 0.975

Ask: So what does the record say about fold change of Cadaverine concentration for O=C1c2ccccc2S(=O)(=O)N1CCCCN1CCN(c2ncccn2)CC1 [Ipsapirone] (20 µM) ?
Reply: 1.02

* * *

test system: Klebsiella aerogenes DSM 30053; test: growth (OD595) fold change vs plate DMSO controls (fold change (ratio)); higher = more growth; conditions: incubation time: 27 h, anaerobic, 37 °C
Where a name gives a salt, the structure may show the parent alone.
TEST READOUT: growth
Give bare numbers.

Use these answered entries as a reference point.
COMPOUND	growth
CC(=O)OC(C)C[N+](C)(C)C (stereo unspecified) [Methacholine chloride] (20 µM)	0.965
C#C[C@]1(O)CC[C@H]2[C@@H]3[C@H](C)CC4=C(CCC(=O)C4)[C@H]3CC[C@@]21C [Tibolone] (20 µM)	1.04
C=C1C[C@H]2[C@@H]3C=C(C)C4=CC(=O)CC[C@]4(C)[C@H]3CC[C@]2(C)[C@@]1(OC(C)=O)C(C)=O [Melengestrol acetate] (20 µM)	1.07
C[C@H](CC[C@@H](O[C@@H]1O[C@H](CO[C@@H]2O[C@H](CO)[C@@H](O)[C@H](O)[C@H]2O)[C@@H](O)[C@H](O)[C@H]1O[C@@H]1O[C@H](CO)[C@@H](O)[C@H](O)[C@H]1O)C(C)(C)O)[C@H]1CC[C@@]2(C)[C@@H]3CC=C4[C@@H](CC[C@H](O[C@@H]5O[C@H](CO[C@@H]6O[C@H](CO)[C@@H](O)[C@H](O)[C@H]6O)[C@@H](O)[C@H](O)[C@H]5O)C4(C)C)[C@]3(C)[C@H](O)C[C@]12C [Mogroside V] (50 µM)	1
Nc1ncn(C2OC(CO)C(O)C2O)c(=O)n1 (stereo unspecified) [Azacytidine-5] (20 µM)	0.974

Below: the item to evaluate.
Ask: growth for CC[C@@H](CO)NCCN[C@@H](CC)CO [Ethambutol dihydrochloride] (20 µM) ?
Reply: 1.01
